# assay name: splicing luciferase reporter signal modulators, primary screen, spliceosome inhibition project, cell-based, HEK293, splice +/- reporter (AID 1101);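 further: HEK293 cells carrying a splicing-competent luciferase reporter gene; test concentration not given here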
# condition summary: luminescence, 24 h, higher = more signal, called active from +8 up or from −8 down
Label rule, in plain words: z-score of -0.1 and up is YES, under -0.1 is NO.

Take a look at these entries with their results.
Decide: is the reported value of z-score for "COC(=O)[C@@H]1CC[C@H](C)[C@@H](c2ccc(Br)cc2)N1" equal to or greater than -0.1?
NO

Would you mind doing "COc1ccc(O[C@H]2C=C[C@@H](c3ccccc3)O[C@@H]2CON=C(C)CCN2CCCc3nc(C)c(C)cc32)cc1" as well?
NO

Now consider "C=CC[C@@H]1C=C[C@H](Oc2ccc(C)cc2)[C@@H](COC(=O)NCc2cccc3ccccc23)O1" and answer again.
NO

Also check "CC(=O)OC[C@H]1O[C@H](CC=NOC[C@@H](O)[C@H]2O[C@@H]3OC(C)(C)O[C@@H]3[C@H]2O)C=C[C@@H]1OC(C)=O"
NO

Try this compound too: "COCOc1ccc(Br)cc1C(=O)C=Cc1ccc2c(c1)OCO2"
NO

Again, but for "COc1ccc(COC(=O)NN=C2C[C@@H](O)[C@@H](O)[C@@H]3[C@@H]4C(=O)N(C5CCCCC5)C(=O)[C@@H]4CC[C@@H]23)cc1"
YES

And then "CC(=O)OC[C@H]1O[C@H](CC=NO[C@H](C)c2cn([C@@H]3COC[C@H]3O)nn2)C=C[C@@H]1OC(C)=O" , what is it?
NO

What would you report for CCOC(=O)[C@H](Cc1ccccc1)NC(=O)CCC1CC(OC(=O)NCCc2ccc(F)cc2)CC2(CCCC(COC(=O)NCCC(C)C)O2)O1 (stereo not given in full) ?
YES

Please give the result for "C=CC[C@@H]1C=C[C@H](ON=CC[C@@H]2C=C[C@H](OC(C)=O)[C@@H](COC(C)=O)O2)[C@@H](CO)O1" too.
YES

Try the compound "CC(C)=CCCC(C)=CCON=C1C[C@@H](O)[C@@H](O)[C@@H]2[C@@H]3C(=O)N(C4CCCCC4)C(=O)[C@@H]3CC[C@H]12"
NO

Next:
Is reported z-score greater than or equal to -0.1 here: "CC(CCN1CCCCc2nc(C)c(C)cc21)=NOC[C@@H](O)[C@H]1O[C@@H]2OC(C)(C)O[C@@H]2[C@H]1O"
YES

# repeat for "CCN1C(C)=C(C(=O)OC)[C@@H](c2ccccc2)N2C(=O)[C@](O)(C(=O)OC)CC(C(C)=O)=C12"
YES

Try this compound too: "CC(C)(C)N1C(=O)[C@H]2[C@H]3[C@H](O)[C@H](O)CC(=NOC[C@@H](O)COCc4ccco4)[C@@H]3CC[C@H]2C1=O"
YES

====

# tgt: Calmodulin-1 (Homo sapiens)
# assay name: CALM1 binders on microarrays, EGTA buffer, profiling panel, biochemical, small-molecule microarray, Cy5-labelled CALM1 (AID 1111);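 further: labelled calmodulin applied in Tris saline Tween buffer holding calcium plus EGTA and DTT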
# condition summary: Cy5-CALM1 binding fluorescence, higher = more signal
Assign Fulfilled to entries whose composite z-score meets or exceeds -0.2; assign Not fulfilled to the rest.

I'd appreciate it if you could say whether "CC(C)CN1CCc2nc(-c3ccccc3)c3c(c2C1)CO[C@@H](C)C3" has composite z-score at least equal to -0.2.
Fulfilled

Cool, now COC(=O)[C@H](C)NC(=O)CCC1CC(OC(=O)NCc2cccc3ccccc23)CC2(CCCC(COC(=O)NCc3cccc(C(F)(F)F)c3)O2)O1 (stereo partly drawn)
Fulfilled

Try this compound too: COC(=O)[C@H](C)NC(=O)CCC1CC(OC(=O)NCc2cccc3ccccc23)CC2(CCCC(COC(=O)NCc3ccccc3)O2)O1 (stereo partly drawn)
Fulfilled

What do you get for "CCN1C(=O)[C@H]2[C@H]3[C@H](O)[C@H](O)CC(=NOCC=C(C)CCC=C(C)C)[C@@H]3CC[C@H]2C1=O" ?
Not fulfilled

Repeat with "CC(=O)OC[C@H]1O[C@@H](ON=C(C)C)[C@H](OC(C)=O)[C@@H](OC(C)=O)[C@@H]1OC(C)=O"
Not fulfilled

Do the same for "CN1CCc2nc(-c3ccccc3)c(-c3ccccc3)cc2C1" please
Fulfilled

Now this one: CCOC(=O)[C@H](Cc1ccccc1)NC(=O)CCC1CC(OC(=O)NCc2ccc3c(c2)OCO3)CC2(CCCC(COC(=O)NCCc3ccc(Cl)cc3)O2)O1 (stereo partly drawn)
Fulfilled

More entries:
Entry CC(=O)OC[C@H]1O[C@H](CC=NOC(C)CN2CCCCc3nc(C)c(C)cc32)C=C[C@@H]1OC(C)=O (stereo partly drawn) : is its composite z-score no less than -0.2?
Not fulfilled

====

Form field: z-score (one value per entry).
# assay name: MM1S cell viability effects, profiling panel, calcein-AM fluorescence, 48 h, basal (AID 1165);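 further: viability of MM1S multiple myeloma cells under basal unstimulated conditions; test concentration not given here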
# condition summary: higher = more signal
Answer with the value's number alone.

Known z-score results, listed for orientation:
May I ask what z-score has been recorded for "COC(=O)[C@@H]1CC[C@H](C)[C@@H](c2ccc(C)cc2)N1C(=O)c1ccc(C=NO[C@@H](C)c2cc(-c3c(C)cc(C)cc3C)no2)cc1" ?
-0.56

Now consider "O=C1[C@H]2[C@H]3[C@H](O)[C@H](O)CC(=NOCc4ccccc4)[C@H]3CC[C@H]2C(=O)N1C1CCCCC1" .
-0.618

Another: "CC(C)CON=C1C[C@@H](O)[C@@H](O)[C@@H]2[C@@H]3C(=O)N(Cc4ccccc4)C(=O)[C@@H]3CC[C@H]12"
0.825

What do you have for "CC(C)=NOC[C@@H](O)[C@H]1O[C@@H]2OC(C)(C)O[C@@H]2[C@H]1O" ?
-0.112

Query "CO[C@H]1COC(=O)CCC[C@H](C)[C@@H](OC)COC(=O)CC=C[C@@H]1C" next
0.105

New cases:
Data request, read-out z-score, for "CC(C)CN1CCc2nc(-c3ccccc3)c3c(c2C1)CO[C@@H](C)C3"
0.639

And then "O=C1C[C@H](c2ccccc2)[C@H](c2ccc(Br)cc2)O1" , what is it?
0.342

Input "CCOC(=O)CCN1C(=O)[C@H]2[C@H]3[C@H](O)[C@H](O)CC(=NNC(=O)OCC)[C@H]3CC[C@H]2C1=O"
-2.14

====

# assay name: E. coli DRC41 culture turbidity changes, primary screen, E. coli filamentation inducer project, strain DRC41, OD650, 48 h (AID 1152);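 further: E. coli MC1000 strain DRC41 lacking acrAB efflux pump and sulA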
# condition summary: E. coli DRC41 (acrAB sulA), higher = more signal, called active from +8 up or from −8 down
Documented z-score across a set of compounds
Form: value (number only, do not type unit).

Some entries whose results are on file:
Using the record for Cc1cc2c(nc1C)CCCCN2CC(O)CN1CCCc2nc(-c3ccc(Br)cc3)ccc21 (stereo not drawn) , report its z-score.
0.453

Record: "O=C1[C@H]2[C@H]3[C@H](O)[C@H](O)CC(=NO[C@@H]4O[C@H](CO)[C@@H](O)[C@H](O)[C@H]4O)[C@H]3CC[C@H]2C(=O)N1c1ccc(F)cc1F"
-0.205

Please answer likewise for "O=C1C2=CC[C@H]3C(=O)N(Cc4ccccc4)C(=O)[C@H]3[C@H]2[C@H](O)[C@@H]2O[C@H]12"
-0.536

Then what about the compound "Cc1ccc(C(C)C)n1C(=O)OC(C)(C)C" ?
-0.241

Moving on to the next compound: "CCN1C(=O)[C@H]2[C@H]3[C@H](O)[C@H](O)CC(=NNC(=O)OCc4ccccc4)[C@@H]3CC[C@H]2C1=O"
-0.0098

Same question for "C[C@H]1C=CCC(=O)OC[C@H](C)C(=O)N2CCC[C@H]2C(=O)OC1" please.
0.392

Check "COC(=O)CC=C[C@@H](C)[C@@H](C=NOC[C@@H](C)[C@H](OCc1ccccc1)C(C)C)OC" too.
0.14

Field: next compound
Which z-score reading was recorded for the compound "Cc1ccc(S(=O)(=O)N[C@@H]2COC(=O)CC=C[C@@H](C)[C@H](NS(=O)(=O)c3ccc(C)cc3)COC(=O)[C@H](C)NC(=O)CC=C[C@H]2C)cc1" ?
0.328

====

# assay name: basal RPMI8226 mitochondrial membrane potential changes, profiling panel, cell-based, JC-1 fluorescence, 24 h, 100 nL compound (AID 1169); further: test concentration not given here
# condition summary: RPMI8226 myeloma, JC-1 mitochondrial potential fluorescence, higher = more signal
# Lookup of reported z-score keyed by entry

// worked examples, z-score included
Quick one: z-score of "COc1cccc([C@H]2Oc3ccc(OC)cc3C(=NOCC[C@@H]3C=C[C@H](OC(C)=O)[C@@H](COC(C)=O)O3)[C@@H]2O)c1" ?
-0.209

What do you get for "CCN1C(=O)[C@H]2[C@H]3[C@H](O)[C@H](O)CC(=NO[C@@H](C)c4cc(-c5c(C)cc(C)cc5C)no4)[C@@H]3CC[C@H]2C1=O" ?
0.473

Next molecule: "C=C(C)C(=O)OC[C@H]1CN2[C@@H](CC[C@@H](C)[C@@H]2c2ccc(Br)cc2)C(=O)O1"
-0.521

What would you report for "CC(C)(C)N1C(=O)[C@H]2[C@H]3[C@H](O)[C@H](O)CC(=NNC(=O)OCc4ccccc4)[C@@H]3CC[C@H]2C1=O" ?
-0.368

Another molecule to check: "CC(=O)OC[C@H]1O[C@H](CCON=C(C)C)C=C[C@@H]1OC(C)=O"
0.636

Check "COC(=O)CC=C[C@@H](C)[C@@H](C=NOC[C@@H](C)[C@H](OCc1ccccc1)C(C)C)OC" too.
-0.151

***
Which z-score value is on record for "C[C@@H]1CC[C@H]2C(=O)N3[C@@H](CC[C@@H](C)[C@@H]3c3ccc(Br)cc3)C(=O)N2[C@H]1c1ccc(Br)cc1" ?
-0.22
